Each record here notes measured EC50.
- measured_target: α-7 nicotinic ACh receptor ion channel expressed in HEK 293 cells (Rattus norvegicus, UniProt Q05941)
- Construct: expressed in transfected cells
- Sequence (Q05941 23-502): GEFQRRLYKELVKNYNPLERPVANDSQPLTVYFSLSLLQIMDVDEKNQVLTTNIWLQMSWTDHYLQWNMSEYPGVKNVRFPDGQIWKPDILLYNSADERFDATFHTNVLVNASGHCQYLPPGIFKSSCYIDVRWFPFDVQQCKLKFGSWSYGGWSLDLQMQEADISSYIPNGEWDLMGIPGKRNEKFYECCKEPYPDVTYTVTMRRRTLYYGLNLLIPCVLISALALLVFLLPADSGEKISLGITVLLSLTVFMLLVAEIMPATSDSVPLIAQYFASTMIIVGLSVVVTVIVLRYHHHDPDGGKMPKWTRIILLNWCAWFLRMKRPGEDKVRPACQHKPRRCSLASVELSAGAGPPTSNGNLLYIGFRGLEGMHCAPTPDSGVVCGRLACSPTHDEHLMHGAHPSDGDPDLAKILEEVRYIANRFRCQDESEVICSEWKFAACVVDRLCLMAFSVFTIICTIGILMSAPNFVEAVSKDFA
- protocol_text: Ca2+-sensitive, fluorescence-based assay for α-7 nicotinic acetylcholine receptor channel function in mammalian cells (FLIPR)
- Type: cell-based
- stated_conditions: Table 3, agonist Ca2+ flux, read-out: FLIPR α7 (EC50)
- Method: II) A Ca^2+-Sensitive, Fluorescence-Based Assay α-7 for Nicotinic Acetylcholine Receptor Channel Function in Mammalian Cells (“FLIPR”). Summary: Lead compounds are evaluated for agonist activity at α-7, α3β4, α4αβ2, and α1β1δ1ε sub-types of nicotinic ACh receptor ion channels expressed in mammalian HEK 293 cells. Agonist potency and efficacy values are determined from kinetic fluorescence Ca^2+ influx measurements made using a 384 well FLIPR (Fluorescence Image Plate Reader). […]

Record O=C(c1n[nH]c2ccc(Cl)cc12)N1C[C@@H]2C[N@@]3CC[C@@H]2[C@@H]1C3 . Reported EC50: > 100 µM

So, O=C(c1nsc2ccccc12)N1C[C@@H]2C[N@@]3CC[C@@H]2[C@@H]1C3 ? Its EC50 was 36 µM

Per the records, this compound ( O=C(c1cc2cccc(Cl)c2s1)N1C[C@@H]2C[N@@]3CC[C@@H]2[C@@H]1C3 ) has EC50 equal to > 100 µM

Recorded result, COc1ccc2c(C(=O)N3C[C@@H]4C[N@@]5CC[C@@H]4[C@@H]3C5)n[nH]c2c1 , EC50: > 100 µM

Lab note: O=C(c1n[nH]c2ccc(Br)cc12)N1C[C@@H]2C[N@@]3CC[C@@H]2[C@@H]1C3 gave EC50 of > 100 µM

Others:
Entry COc1cccc2[nH]nc(C(=O)N3C[C@@H]4C[N@@]5CC[C@@H]4[C@@H]3C5)c12 , EC50 reported as 30 µM

Form field EC50, entry Cn1nc(C(=O)N2C[C@@H]3C[N@@]4CC[C@@H]3[C@@H]2C4)c2ccccc21 : > 100 µM

EC50 recorded for this compound, O=C(c1cc2c(Cl)cccc2s1)N1C[C@@H]2C[N@@]3CC[C@@H]2[C@@H]1C3 , is > 100 µM

Please fill in: EC50 reported for O=C(c1cc2ccccc2s1)N1C[C@@H]2C[N@@]3CC[C@@H]2[C@@H]1C3 = 11 µM

Item: O=C(c1cc2ccccc2o1)N1C[C@@H]2C[N@@]3CC[C@@H]2[C@@H]1C3 | EC50: > 100 µM

====

- measured_target: α-7 nicotinic ACh receptor ion channel expressed in HEK 293 cells (Rattus norvegicus, UniProt Q05941)
- Construct: expressed in transfected cells
- protocol_text: Ca2+-sensitive, fluorescence-based assay for α-7 nicotinic acetylcholine receptor channel function in mammalian cells (FLIPR)
- Assay type: cell-based
- stated_conditions: Table 4, agonist Ca2+ flux, read-out: FLIPR α7 (EC50)
recorded_metric: pEC50
By convention, pEC50 is the negative base-10 log of a molar concentration.

Noted for O=C(c1n[nH]c2ccccc12)N1CC2CCN3CCC2C1C3 (stereo not shown) [Example 114] : its pEC50 reads 6.33

====

- measured_target: α-7 nicotinic ACh receptor ion channel expressed in HEK 293 cells (Rattus norvegicus, UniProt Q05941)
- Construct: expressed in transfected cells
- protocol_text: Ca2+-sensitive, fluorescence-based assay for α-7 nicotinic acetylcholine receptor channel function in mammalian cells (FLIPR)
- Assay type: cell-based
- stated_conditions: Table 1, agonist Ca2+ flux, read-out: FLIPR α7 (EC50)
pEC50: −log10 of the molar value.
recorded_metric: pEC50

// worked examples, pEC50 included
For this compound ( O=C(c1cc2ccc(Cl)cc2s1)N1CC2CN3CCC2C1C3 (stereo not shown) ), measured pEC50 is < 4.00

Item: O=C(c1cc(-c2ccccc2)cs1)N1CC2CN3CCC2C1C3 (stereo not shown) | pEC50: < 4.00

get_value(item= CSc1sc(C(=O)N2CC3CN4CCC3C2C4)c2c1C=CCC2 (stereo not shown) , readout=pEC50) returns < 4.00

response.value for O=C(c1ccns1)N1CC2CN3CCC2C1C3 (stereo not shown) (field: pEC50) = < 4.00

Documented pEC50 of Cc1c(C(=O)N2CC3CN4CCC3C2C4)sc2ccc(Cl)cc12 (stereo not shown) : < 4.00

Recorded result, O=C(c1noc2ccccc12)N1CC2CN3CCC2C1C3 (stereo not shown) , pEC50: 5.10

Others:
The compound O=C(c1c[nH]c2ncc(Br)cc12)N1CC2CN3CCC2C1C3 (stereo not shown) showed pEC50 equal to 4.42

What the record says about O=C(c1onc2ccccc12)N1CC2CN3CCC2C1C3 (stereo not shown) : pEC50 is < 4.00

The value of pEC50 measured for the compound O=C(c1sc2ccccc2c1Cl)N1CC2CN3CCC2C1C3 (stereo not shown) turned out to be < 4.00

// pEC50 value for O=C(c1sc2cc(F)ccc2c1Cl)N1CC2CN3CCC2C1C3 (stereo not shown) : < 4.00

====

- measured_target: α-7 nicotinic ACh receptor ion channel expressed in HEK 293 cells (Rattus norvegicus)
- Construct: expressed in transfected cells
- protocol_text: Ca2+-sensitive, fluorescence-based assay for α-7 nicotinic acetylcholine receptor channel function in mammalian cells (FLIPR)
- Type: cell-based
- stated_conditions: Table 2, agonist Ca2+ flux, read-out: FLIPR α7 (EC50)
recorded_metric: log10 of EC50 (log10 of the value in µM)
Values reflect log10 of reported EC50 (µM).

Kindly note: α-7 nicotinic ACh receptor ion channel expressed in HEK 293 cells (Rattus norvegicus), O=C(c1cc2ccccc2s1)N1C[C@H]2C[N@]3CC[C@H]2[C@H]1C3 , log10 of EC50 value reported: 1.26

Reported α-7 nicotinic ACh receptor ion channel expressed in HEK 293 cells (Rattus norvegicus) log10 of EC50 for item O=C(c1nsc2ccccc12)N1C[C@H]2C[N@]3CC[C@H]2[C@H]1C3 was 1.48

Assay α-7 nicotinic ACh receptor ion channel expressed in HEK 293 cells (Rattus norvegicus), sample COc1ccc2c(C(=O)N3C[C@H]4C[N@]5CC[C@H]4[C@H]3C5)n[nH]c2c1 , log10 of EC50 read: 0.34

====

- measured_target: α-7 nicotinic ACh receptor ion channel expressed in HEK 293 cells (Rattus norvegicus)
- Construct: expressed in transfected cells
- protocol_text: Ca2+-sensitive, fluorescence-based assay for α-7 nicotinic acetylcholine receptor channel function in mammalian cells (FLIPR)
- Format: cell-based
- stated_conditions: Table 3, agonist Ca2+ flux, read-out: FLIPR α7 (EC50)
pEC50: −log10 of the molar value.
recorded_metric: pEC50

These recorded examples may help you get a feel for the data.
The compound listed as O=C(c1ccc(Cl)cc1)N1C[C@@H]2C[N@@]3CC[C@@H]2[C@@H]1C3 has a reported pEC50 of < 4.00

Recorded pEC50 (compound O=C(c1n[nH]c2ccccc12)N1C[C@@H]2C[N@@]3CC[C@@H]2[C@@H]1C3 ): 6.43

Cn1cc(C(=O)N2C[C@@H]3C[N@@]4CC[C@@H]3[C@@H]2C4)c2ccccc21 yielded pEC50 of < 4.00

Others:
Reported pEC50 for COc1ccc2[nH]nc(C(=O)N3C[C@@H]4C[N@@]5CC[C@@H]4[C@@H]3C5)c2c1 was < 4.00

Form: compound = O=C(c1n[nH]c2cc(Cl)ccc12)N1C[C@@H]2C[N@@]3CC[C@@H]2[C@@H]1C3 ; pEC50 = < 4.00

====

- measured_target: α-7 nicotinic ACh receptor ion channel expressed in HEK 293 cells (Rattus norvegicus, UniProt Q05941)
- Construct: expressed in transfected cells
- protocol_text: Ca2+-sensitive, fluorescence-based assay for α-7 nicotinic acetylcholine receptor channel function in mammalian cells (FLIPR)
- Format: cell-based
- stated_conditions: Table 2, agonist Ca2+ flux, read-out: FLIPR α7 (EC50)
recorded_metric: EC50

Look over these answered cases.
EC50 measured on O=C(c1ccc(Cl)cc1)N1C[C@H]2C[N@]3CC[C@H]2[C@H]1C3 = > 100 µM

Recorded EC50 (molecule Cn1nc(C(=O)N2C[C@H]3C[N@]4CC[C@H]3[C@H]2C4)c2ccccc21 ): > 100 µM

For this molecule ( COc1cccc2[nH]nc(C(=O)N3C[C@H]4C[N@]5CC[C@H]4[C@H]3C5)c12 ), measured EC50 is > 100 µM

EC50 reading for O=C(c1cc2c(Cl)cccc2s1)N1C[C@H]2C[N@]3CC[C@H]2[C@H]1C3 : > 100 µM

Kindly note the recorded EC50 for O=C(c1cc2cccc(Cl)c2s1)N1C[C@H]2C[N@]3CC[C@H]2[C@H]1C3 , which is > 100 µM

New cases:
Reported EC50 of O=C(c1cc2ccccc2o1)N1C[C@H]2C[N@]3CC[C@H]2[C@H]1C3 : 35 µM

Summary for this molecule, O=C(c1n[nH]c2ccccc12)N1C[C@H]2C[N@]3CC[C@H]2[C@H]1C3 : EC50 is 0.39 µM

Quick note, EC50 for O=C(c1n[nH]c2ccc(Cl)cc12)N1C[C@H]2C[N@]3CC[C@H]2[C@H]1C3 landed at 0.7 µM

The reported value for Cn1cc(C(=O)N2C[C@H]3C[N@]4CC[C@H]3[C@H]2C4)c2ccccc21 in terms of EC50 is > 100 µM
